Please respond with reported Kb for every item in the list.
# Species on record: Rattus norvegicus
# experiment_description: Antioxytoxic activity in vitro in isolated uteri from estrogen pretreated rats suspended in Mg-free Dyke-Hastings solution.
# run_parameters: read-out: pA2 (converted)

Record Kb for all entries; do not skip any.
1. CCOc1ccc(C[C@H]2NC(=O)CC3(CCCCC3)SSC[C@@H](C(=O)N3CCC[C@H]3C(=O)N[C@@H](CCCNC(N)=O)C(=O)NCC(N)=O)NC(=O)[C@H](CC(N)=O)NC(=O)[C@H](C(C)C)NC(=O)[C@H](Cc3ccccc3)NC2=O)cc1
2. CC[C@H](C)[C@@H]1NC(=O)C(Cc2ccc(OC)cc2)NC(=O)CC(C)(C)SSC[C@@H](C(=O)N2CCC[C@H]2C(=O)N[C@@H](CCCN=C(N)N)C(=O)NCC(N)=O)NC(=O)[C@H](CC(N)=O)NC(=O)[C@H](CCC(N)=O)NC1=O (stereo in doubt)

Result string:
1: 2.45 nM; 2: 0.759 nM

====

Assignment: determine reported Kb for the given molecules.
# Organism: Rattus norvegicus
# experiment_description: Antioxytoxic activity in vitro in isolated uteri from estrogen pretreated rats suspended in Mg-free Dyke-Hastings solution.
# run_parameters: read-out: pA2 (converted)
One number for each entry, in nM.

{"columns": ["molecule", "units_of_measure", "Kb"],
 "data": [
  ["COc1ccc(C[C@H]2NC(=O)CC3(CCCCC3)SSC[C@@H](C(=O)N3CCC[C@H]3C(=O)N[C@@H](CCCN=C(N)N)C(=O)NCC(N)=O)NC(=O)[C@H](CC(N)=O)NC(=O)[C@H](C(C)C)NC(=O)[C@H](Cc3ccccc3)NC2=O)cc1", "nM", 11]
]}

From here, focus on the item given below.
Query string: Item under review: CC[C@H](C)[C@@H]1NC(=O)C(Cc2ccc(OC)cc2)NC(=O)CC(C)(C)SSC[C@@H](C(=O)N2CCC[C@H]2C(=O)N[C@@H](CCCN=C(N)N)C(=O)NCC(N)=O)NC(=O)[C@H](CC(N)=O)NC(=O)[C@H](C(C)C)NC1=O (stereo in doubt) . Reported Kb?
Result string: 17.8

====

# Species on record: Rattus norvegicus
# experiment_description: Antioxytoxic activity in vitro in isolated uteri from estrogen pretreated rats suspended in Mg-free Dyke-Hastings solution.
# run_parameters: read-out: pA2 (converted)
Starred links: 1 amine or outer side, 2 acyl side, 3 side chain; linkers in the order of their positions; H or OH if unused. Positions of bridges follow the written chain, without caps; N, C: chain ends. Non-standard residues stand in square brackets, D forms with d. Residues, ends and D or L forms follow the SMILES beside them. X1 = O=C(CC1(S[*:2])CCCCC1)[*:1]; Orn = NCCC[C@H](N)C(=O)O
assay_readout: Kb (nM)
One number for each entry, in nM.

{"columns": ["compound", "assay_readout", "units_of_measure", "recorded_result"],
 "data": [
  ["CC[C@H](C)[C@@H]1NC(=O)[C@H](Cc2ccc(OC)cc2)NC(=O)CC2(CCCCC2)SSC[C@@H](C(=O)N2CCC[C@H]2C(=O)N[C@@H](CCCN)C(=O)N[C@@H](Cc2ccc(O)cc2)C(N)=O)NC(=O)[C@H](CC(N)=O)NC(=O)[C@H]([C@@H](C)O)NC1=O (Y(Me)ITNCP[Orn]Y-NH2; linker N-5 via X1)", "Kb", "nM", 23.4]
]}

Give Kb for each of the items listed below.
1. CC[C@H](C)[C@@H]1NC(=O)[C@H](Cc2ccc(OC)cc2)NC(=O)CC2(CCCCC2)SSC[C@@H](C(=O)N2CCC[C@H]2C(=O)N[C@@H](CCCN)C(=O)NCC(N)=O)NC(=O)[C@H](CC(N)=O)NC(=O)[C@H](CCC(N)=O)NC1=O (Y(Me)IQNCP[Orn]G-NH2; linker N-5 via X1)
2. CC[C@H](C)[C@@H]1NC(=O)[C@H](Cc2ccc(OC)cc2)NC(=O)CC2(CCCCC2)SSC[C@@H](C(=O)N2CCC[C@H]2C(=O)N[C@@H](CCCN)C(=O)NCC(N)=O)NC(=O)[C@H](CC(N)=O)NC(=O)[C@H]([C@@H](C)O)NC1=O (Y(Me)ITNCP[Orn]G-NH2; linker N-5 via X1)
3. COc1ccc(C[C@@H]2NC(=O)CC3(CCCCC3)SSC[C@@H](C(=O)N3CCC[C@H]3C(=O)N[C@@H](CCCN=C(N)N)C(=O)NCC(N)=O)NC(=O)[C@H](CC(N)=O)NC(=O)[C@H](C(C)C)NC(=O)[C@H](Cc3ccccc3)NC2=O)cc1

Result string:
1. 3.02
2. 9.55
3. 4.37

====

# Species: Rattus norvegicus
# experiment_description: Antidiuretic activity in rat
# Assay type: functional, Urine
Starred links: 1 amine or outer side, 2 acyl side, 3 side chain; linkers in the order of their positions; H or OH if unused. Positions of bridges follow the written chain, without caps; N, C: chain ends. Non-standard residues stand in square brackets, D forms with d. Residues, ends and D or L forms follow the SMILES beside them. X1 = O=C(CC1(S[*:2])CCCCC1)[*:1]; Orn = NCCC[C@H](N)C(=O)O
assay_readout: Activity (mg)
One number for each entry, in mg.

{"columns": ["molecule", "Activity / mg"],
 "data": [
  ["CC[C@H](C)[C@@H]1NC(=O)[C@H](Cc2ccc(OC)cc2)NC(=O)CC2(CCCCC2)SSC[C@@H](C(=O)N2CCC[C@H]2C(=O)N[C@@H](CCCN)C(=O)NCC(N)=O)NC(=O)[C@H](CC(N)=O)NC(=O)[C@H]([C@@H](C)O)NC1=O (Y(Me)ITNCP[Orn]G-NH2; linker N-5 via X1)", 0.01]
]}

Turning now to a further record.
Query string: Form field: reported Activity of CC[C@H](C)[C@@H]1NC(=O)C(Cc2ccc(OC)cc2)NC(=O)CC(C)(C)SSC[C@@H](C(=O)N2CCC[C@H]2C(=O)N[C@@H](CCCN=C(N)N)C(=O)NCC(N)=O)NC(=O)[C@H](CC(N)=O)NC(=O)[C@H](C(C)C)NC1=O (stereo in doubt)
Result string: 1.6

====

# Test system: Rattus norvegicus
# experiment_description: Antivasopressor activity in vivo in phenoxybenzamine pre-treated rats.
# Assay type: functional
Starred links: 1 amine or outer side, 2 acyl side, 3 side chain; linkers in the order of their positions; H or OH if unused. Positions of bridges follow the written chain, without caps; N, C: chain ends. Non-standard residues stand in square brackets, D forms with d. Residues, ends and D or L forms follow the SMILES beside them. X1 = O=C(CC1(S[*:2])CCCCC1)[*:1]; Orn = NCCC[C@H](N)C(=O)O
Binarize ED at 0.8 nM/kg; below is Criterion met, at or above is Criterion not met.

A selection of reference data follows.
{"columns": ["compound", "assigned_category"],
 "data": [
  ["CC[C@H](C)[C@@H]1NC(=O)[C@@H](Cc2ccc(OC)cc2)NC(=O)CC2(CCCCC2)SSC[C@@H](C(=O)N2CCC[C@H]2C(=O)N[C@@H](CCCN=C(N)N)C(=O)NCC(N)=O)NC(=O)[C@H](CC(N)=O)NC(=O)[C@H](C(C)C)NC1=O", "Criterion not met"],
  ["COc1ccc(C[C@@H]2NC(=O)CC3(CCCCC3)SSC[C@@H](C(=O)N3CCC[C@H]3C(=O)N[C@@H](CCCN=C(N)N)C(=O)NCC(N)=O)NC(=O)[C@H](CC(N)=O)NC(=O)[C@H](CCC(N)=O)NC(=O)[C@H](Cc3ccccc3)NC2=O)cc1", "Criterion met"],
  ["CC[C@H](C)[C@@H]1NC(=O)[C@H](Cc2ccc(OC)cc2)NC(=O)CC2(CCCCC2)SSC[C@@H](C(=O)N2CCC[C@H]2C(=O)N[C@@H](CCCN)C(=O)N[C@@H](CCCN=C(N)N)C(N)=O)NC(=O)[C@H](CC(N)=O)NC(=O)[C@H]([C@@H](C)O)NC1=O", "Criterion met"],
  ["CC[C@H](C)[C@@H]1NC(=O)[C@H](Cc2ccc(OC)cc2)NC(=O)CC2(CCCCC2)SSC[C@@H](C(=O)N2CCC[C@H]2C(=O)N[C@@H](CCCN)C(=O)N[C@@H](Cc2ccc(O)cc2)C(N)=O)NC(=O)[C@H](CC(N)=O)NC(=O)[C@H]([C@@H](C)O)NC1=O (Y(Me)ITNCP[Orn]Y-NH2; linker N-5 via X1)", "Criterion not met"],
  ["CC[C@H](C)[C@@H]1NC(=O)C(Cc2ccc(OC)cc2)NC(=O)CC2(CCCCC2)SSC[C@@H](C(=O)N2CCC[C@H]2C(=O)N[C@@H](CCCN=C(N)N)C(=O)NCC(N)=O)NC(=O)[C@H](CC(N)=O)NC(=O)[C@H](CCC(N)=O)NC1=O (stereo in doubt)", "Criterion met"]
]}

Query string: # TODO verify ED < 0.8 nM/kg strictly for this compound: CC[C@H](C)[C@@H]1NC(=O)[C@H](Cc2ccc(OC)cc2)NC(=O)CC2(CCCCC2)SSC[C@@H](C(=O)N2CCC[C@H]2C(=O)N[C@@H](CCCN)C(N)=O)NC(=O)[C@H](CC(N)=O)NC(=O)[C@H]([C@@H](C)O)NC1=O (Y(Me)ITNCP[Orn]-NH2; linker N-5 via X1)
Result string: Criterion not met
